- Tested on: TLR2 induced IL-6 in peripheral blood mononuclear cells (PBMCs)
- PROTOCOL TEXT: PBMC TLR2 Induced IL-6 Assay
- Assay type: cell-based, human
- TEST PARAMETERS: Homo sapiens, PBMC, 5 h, read-out: Cell IC50
pIC50: −log10 of the molar value.
ASSAY READOUT: pIC50

• CNC(=O)c1cnc(Nc2ccc3ncsc3c2)cc1N[C@H](CO)c1ccccc1 [Example 145] = 6.59
• CC(C)Nc1cc(Nc2ccc3ncsc3c2)ncc1C(=O)NCC[C@@H](C)NC(=O)C1CCCC1 [Example 184] = 6.67
• CNC(=O)c1cnc(Nc2ccc3ncsc3c2)cc1N[C@@H](c1ccccc1)[C@H](O)CO [Example 143] = 6.53

###

- System: TLR2 induced IL-6 in peripheral blood mononuclear cells (PBMCs)
- PROTOCOL TEXT: PBMC TLR2 Induced IL-6 Assay
- Format: cell-based, human
- TEST PARAMETERS: Homo sapiens, PBMC, 5 h, human PBMCs, 10 μg/ml lipoteichoic acid for 5 hours, IL-6 by ELISA; value without asterisk; read-out: Cell IC50
Items are presented alongside their recorded IC50.
ASSAY READOUT: IC50 (nM)

- CC(C)(O)[C@H](F)CNC(=O)c1cnc(Nc2ccc3ncsc3c2)cc1NC12CCC(NC(=O)c3ccncc3)(CC1)C2: 203
- Cc1cn2nc(Nc3cc(NC4CC4)c(C(=O)NC[C@@H](F)C(C)(C)O)cn3)ccc2n1: 618
- Cc1nc2cc(F)c(Nc3cc(NC4CCCC4F)c(C(=O)NC[C@@H](F)C(C)(C)O)cn3)cc2s1 (stereo partly shown): 327
- CC(C)(O)[C@H](F)CNC(=O)c1cnc(Nc2ccc3ncsc3c2)cc1N[C@@H](c1ccccc1)[C@H](O)CO: 444

###

Items are presented alongside their recorded IC50.
- TESTED TARGET: IRAK4 (Homo sapiens (Human))
- Sequence (Q9NWZ3 whole entry, species assumed): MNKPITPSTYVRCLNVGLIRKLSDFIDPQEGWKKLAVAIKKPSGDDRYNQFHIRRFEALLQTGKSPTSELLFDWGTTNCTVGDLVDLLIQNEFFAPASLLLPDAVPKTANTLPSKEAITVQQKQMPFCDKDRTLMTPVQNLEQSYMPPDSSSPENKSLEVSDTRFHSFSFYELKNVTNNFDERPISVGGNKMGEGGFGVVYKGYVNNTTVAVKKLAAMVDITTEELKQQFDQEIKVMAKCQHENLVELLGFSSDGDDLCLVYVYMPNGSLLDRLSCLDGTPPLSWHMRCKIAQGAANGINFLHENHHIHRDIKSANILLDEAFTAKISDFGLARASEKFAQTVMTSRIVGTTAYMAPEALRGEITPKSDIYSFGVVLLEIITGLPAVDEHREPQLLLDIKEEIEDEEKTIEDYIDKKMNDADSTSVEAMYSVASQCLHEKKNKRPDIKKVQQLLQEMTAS
ASSAY READOUT: IC50 (nM)

* CC(C)(O)[C@H](F)CNC(=O)c1cnc(Nc2nc3ccnn3cc2F)cc1NC1CCC(F)(F)C1 (stereo partly shown) [Example 391] | 2.5
* CC(C)(O)[C@H](F)CNC(=O)c1cnc(Nc2ccc3ncsc3c2)cc1N[C@@H]1CCCC1F (stereo partly shown) [Example 343] | 3
* CC(C)(O)[C@H](F)CNC(=O)c1cnc(Nc2ccc3ncsc3c2)cc1NC1CC(F)(F)C1 [Example 121] | 2
* CC(C)(O)[C@H](F)CNC(=O)c1cnc(Nc2ccc3ncsc3c2)cc1NC1CC(CO)C1 (stereo partly shown) [Example 69] | 3.4

###

pIC50: −log10 of the molar value.
Values of pIC50 reported for IRAK4 (Homo sapiens (Human), UniProt Q9NWZ3) appear below.
ASSAY READOUT: pIC50

* CC(C)Nc1cc(Nc2ccn3ncc(Cl)c3n2)ncc1C(=O)NC[C@@H](F)C(C)(C)O [Example 262] | 8.54
* CC(C)Nc1cc(Nc2ccn3ncc(F)c3c2)ncc1C(=O)NC[C@@H](F)C(C)(C)O | 9.00
* CC1COCCC1Nc1cc(Nc2ccc3ncsc3c2)ncc1C(=O)NC[C@@H](F)C(C)(C)O (some centres unmarked) | 8.13
* Cc1cn2nccc2cc1Nc1cc(NC(C)C)c(C(=O)NC[C@@H](F)C(C)(C)O)cn1 | 8.09
* CC(C)(O)[C@H](F)CNC(=O)c1cnc(Nc2ccc3ncsc3c2)cc1NC1CC2CCC1C2 (some centres unmarked) | 8.59
* CC(C)(O)[C@H](F)CNC(=O)c1cnc(Nc2ccn3nccc3n2)cc1NC1CC2CC2C1(F)F (some centres unmarked) | 8.60
* CC(C)(O)[C@H](F)CNC(=O)c1cnc(Nc2ccc3ncsc3c2)cc1NC1CCC(O)C1 (some centres unmarked) | 8.41
* CC(C)(O)[C@H](F)CNC(=O)c1cnc(Nc2ccc3ncc(C#N)cc3n2)cc1NC1CCC(F)C1 (some centres unmarked) [Example 413] | 8.20
